Source listed as PubChem BioAssay.

Test summary: survival rescue of mitochondrial mutant cells in low glucose, primary screen, MELAS cybrids, Rieske KO mouse fibroblasts, CellTiter-Glo (AID 1508586);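 note: z relative to plate mean and SD of compound and empty wells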
Measurement conditions: Rieske KO mouse fibroblast survival, CellTiter-Glo 72 h
Value type: z-score
I'd appreciate a reply containing only the number, no unit.

// known answers, use as guide
>  <Structure>
CCCN1CCC(Oc2cc(Nc3nc(Nc4cccc(F)c4C(N)=O)c4cc[nH]c4n3)c(OC)cc2Cl)CC1

>  <z-score>
0.375

$$$$
>  <Structure>
CCc1cccc(CC)c1/C=C/c1cncc(C(=O)NC)c1

>  <z-score>
-0.269

$$$$
>  <Structure>
CNC(=O)c1sc(-n2cnc3cc(OC)c(OC)cc32)cc1OCc1ccccc1C(F)(F)F

>  <z-score>
-0.0583

$$$$

Turning now to a further compound:
Query block: Complete the entry with z-score for NS(=O)(=O)c1ccc(N=Nc2c(O)[nH]c3ccc(C(=O)NCCCn4ccnc4)cc23)cc1
Result block: -0.000813

###

Test summary: IRF3 reporter activation in THP-1 macrophages, cell-based, PMA-stimulated THP-1, luminescence (AID 1053176)
Measurement conditions: PMA-differentiated THP-1, IRF3 reporter luminescence; stronger effect = higher value
Each entry gets -1 if its fraction signal stays under -0.008, and 1 if its fraction signal is -0.008 or above.

>  <Compound>
O=C1NC(=NCCc2ccc(Br)cc2)SC1=Cc1ccc2ncccc2c1

>  <Label value>
1

$$$$

Query block: Hi, just wondering whether Nc1c(C(=O)c2cccc(-c3cccnc3)c2)cnn1-c1ccc(F)cc1F shows fraction signal of -0.008 or higher.
Result block: 1

Query block: Identify whether the reported fraction signal of the following compound is -0.008 or greater: COC(=O)c1ccc2c(c1)/C(=C\c1cc(Br)c(O)c(Br)c1)C(=O)N2
Result block: -1

###

Test summary: CellTiter-Glo luminescent readout of SW480 viability loss, NPC library primary (AID 1117343)
Measurement conditions: CellTiter-Glo luminescence; at 20 µM (top of the series)
Active and inactive are the calls of the source.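 How the source made its calls: active means compounds that lower viability of the colon cancer cells in the luminescence readout, with no numeric limit stated; inactive means the rest.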
Choose the fitting class; nothing outside 1 = active, 0 = inactive is accepted.

Examples from the recorded data:
>  <Compound>
Cc1onc(-c2ccccc2)c1C(=O)Cl

>  <Label value>
0

$$$$
>  <Compound>
CCc1cccc2c(CCO)c[nH]c12

>  <Label value>
0

$$$$
>  <Compound>
NC(Cc1ccc([N+](=O)[O-])cc1)C(=O)O (stereo not drawn)

>  <Label value>
0

$$$$

Query block: In this assay, the call recorded for CC1CCCCN1CCCOC(=O)c1ccc(OC2CCCCC2)cc1 (stereo not drawn) was what?
Result block: 1

Query block: Assay outcome for COc1ccc2c(c1)c(CC(=O)O)c(C)n2C(=O)c1ccc(Cl)cc1 : what was it?
Result block: 0

###

Test summary: inhibition of endothelial tube formation, primary screen, imaging, VEGF stimulated, CD31 staining, tube area, NPC library (AID 1117340)
Measurement conditions: VEGF-stimulated ADSC/ECFC co-culture, at 10 µM, stronger effect = higher value
Value type: tube area decrease (%)
Form entry: value (%) — number only.

Worked cases, tube area decrease given:
>  <Molecule>
CCCC(=O)O[C@]1(C(=O)CCl)[C@@H](C)C[C@H]2[C@@H]3CCC4=CC(=O)C=C[C@]4(C)[C@@]3(F)C(=O)C[C@@]21C

>  <Value unit>
%

>  <tube area decrease>
36.7

$$$$
>  <Molecule>
CCc1cccc2c3c([nH]c12)C(CC)(CC(=O)O)OCC3 (centres undefined)

>  <Value unit>
%

>  <tube area decrease>
-16.6

$$$$
>  <Molecule>
Cn1cnc([N+](=O)[O-])c1Sc1ncnc2nc[nH]c12

>  <Value unit>
%

>  <tube area decrease>
29.1

$$$$

# ---- query molecule ----
Query block: Please list tube area decrease recorded for the molecule CC(O)CCCCn1c(=O)c2c(ncn2C)n(C)c1=O (centres undefined)
Result block: -9.4

###

System: F380Y
Test summary: modulators of BK channel variants, profiling panel, selectivity assay, cell-based, U2OS BacMam, thallium flux, beta subunits (AID 1259406);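 note: initial slope of Thallos dye fluorescence rise after thallium is added; log ratio against the mean of 0.3% DMSO vehicle wells on the same plate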
Measurement conditions: at 30 µM
Activity calls are given as the source filed them.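 How the source made its calls: active means thallium flux through the channel raised or lowered by more than 3 SD from vehicle-only wells, actives on both sides; inactive means the rest.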
Entries and their measured log fold change Tl+ flux follow.

>  <Molecule>
CC(C)Oc1ccc2c(=O)c(-c3ccccc3)coc2c1

>  <Target desc>
F380Y

>  <log fold change Tl+ flux>
-0.0497 (inactive)

$$$$
>  <Molecule>
CN(C)CCCN1c2ccccc2Sc2ccc(Cl)cc21

>  <Target desc>
F380Y

>  <log fold change Tl+ flux>
0.156 (active)

$$$$
>  <Molecule>
O=c1[nH]cnc2[nH]ncc12

>  <Target desc>
F380Y

>  <log fold change Tl+ flux>
0.0236 (inactive)

$$$$
>  <Molecule>
C[C@@H](O)[C@H]1C(=O)N2C(C(=O)O)=C(S[C@@H]3CN[C@H](C(=O)N(C)C)C3)[C@H](C)[C@H]12

>  <Target desc>
F380Y

>  <log fold change Tl+ flux>
0.000985 (inactive)

$$$$
>  <Molecule>
COc1cc([C@@H]2c3cc4c(cc3[C@H](O)[C@H]3COC(=O)[C@H]23)OCO4)cc(OC)c1OC

>  <Target desc>
F380Y

>  <log fold change Tl+ flux>
0.0196 (inactive)

$$$$
>  <Molecule>
Cc1onc(-c2ccccc2)c1-c1ccc(S(N)(=O)=O)cc1

>  <Target desc>
F380Y

>  <log fold change Tl+ flux>
0.0649 (inactive)

$$$$
>  <Molecule>
NCC(=O)CCC(=O)O

>  <Target desc>
F380Y

>  <log fold change Tl+ flux>
-0.035 (inactive)

$$$$
>  <Molecule>
COCCOC(=O)C1=C(C)NC(C)=C(C(=O)OC(C)C)C1c1cccc([N+](=O)[O-])c1 (stereo unspecified)

>  <Target desc>
F380Y

>  <log fold change Tl+ flux>
-0.0169 (inactive)

$$$$
>  <Molecule>
Clc1cccc(Cl)c1NC1=NCCN1

>  <Target desc>
F380Y

>  <log fold change Tl+ flux>
0.0065 (inactive)

$$$$
>  <Molecule>
COc1ccccc1N1CCN(CCCNc2cc(=O)n(C)c(=O)n2C)CC1

>  <Target desc>
F380Y

>  <log fold change Tl+ flux>
-0.0416 (inactive)

$$$$

Query block: // fetch log fold change Tl+ flux given entry CCN(Cc1ccncc1)C(=O)C(CO)c1ccccc1 (stereo unspecified)
Result block: 0.0305 (inactive)

Query block: Report log fold change Tl+ flux, nothing else, for this molecule: CCOc1ccc2ccccc2c1C(=O)N[C@@H]1C(=O)N2[C@@H]1SC(C)(C)[C@@H]2C(=O)O
Result block: -0.0205 (inactive)

Query block: Give reported log fold change Tl+ flux value for CC(=O)CC(c1ccccc1)c1c(O)c2ccccc2oc1=O (stereo unspecified)
Result block: -0.00266 (inactive)

Query block: Provide log fold change Tl+ flux value for the following molecule: CN(C)CCCN1c2ccccc2CCc2ccc(Cl)cc21
Result block: -0.0375 (inactive)

Query block: Item CN[C@@H]1[C@H](O)[C@H](NC)[C@H]2O[C@@]3(O)C(=O)C[C@@H](C)O[C@H]3O[C@@H]2[C@H]1O : provide log fold change Tl+ flux
Result block: -0.0285 (inactive)

###

Test summary: growth inhibition of GSK3B-pretreated HCT116 cells – cell-based, CellTiter-Glo, 0.2 to 20 µM (AID 1117336)
Measurement conditions: HCT116 viability after GSK3B inhibitor, at 20 µM
The source made the active and inactive calls.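 How the source made its calls: active means compounds lowering colon cancer cell viability after pretreatment blocking the GSK3B kinase; inactive means the rest.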
# output must be one of 1 (active), -1 (inactive)

These solved cases illustrate the format of a correct answer.
>  <Compound>
CCOc1ccccc1O[C@H](c1ccccc1)[C@H]1CNCCO1

>  <Label value>
-1

$$$$
>  <Compound>
O=C(O)Cc1cccc(-c2cc(CCCCCCc3ccc(O[C@H]4O[C@H](CO)[C@@H](O)[C@H](O)[C@@H]4O)c(-c4cccc(CC(=O)O)c4)c3)ccc2O[C@H]2O[C@H](CO)[C@@H](O)[C@H](O)[C@@H]2O)c1

>  <Label value>
-1

$$$$
>  <Compound>
CN(C)CCCN1c2ccccc2CCc2ccc(Cl)cc21

>  <Label value>
-1

$$$$

Query block: Look up the recorded call for CCCN(CCc1cccs1)[C@H]1CCc2c(O)cccc2C1 in this test.
Result block: -1

Query block: State the result this test recorded for CCCCCCCCCCCCCCCC[N+](C)(C)Cc1ccccc1 .
Result block: 1

Query block: // outcome(item) with item = Nc1nc(=O)n([C@@H]2O[C@H](CO)[C@@H](O)[C@@H]2F)cc1I
Result block: -1

Query block: Could you check what this test reported for CN(C)C(=O)CNC(=O)Cc1ccccc1 ?
Result block: -1

###

Overview of recorded GLP1 secretion stimulation for various molecules
Test summary: glucagon-like peptide 1 release enhancers, primary assay, NCI-H716 cell line, NPC library (AID 1117341)
Measurement conditions: NCI-H716 cells, at 10 µM, stronger effect = higher value
Activity calls are given as the source filed them.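 The calls were made as follows: active = compound raises GLP1 secretion from the human gut endocrine cells, with no numeric limit stated; inactive = the rest.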

>  <Molecule>
CCCOc1ccc2c(c1)CC[C@@H]1[C@@H]2CC[C@]2(C)C(OC)CC[C@@H]12 (stereo not given in full)

>  <Value type>
GLP1 secretion stimulation

>  <Measured result>
-0.8% (inactive)

$$$$
>  <Molecule>
CCC(=O)O[C@]1(C(=O)CCl)[C@@H](C)C[C@H]2[C@@H]3CCC4=CC(=O)C=C[C@]4(C)[C@@]3(F)[C@@H](O)C[C@@]21C

>  <Value type>
GLP1 secretion stimulation

>  <Measured result>
2.1% (inactive)

$$$$
>  <Molecule>
O=C1[C@@H]2[C@H]3CC[C@H](C3)[C@@H]2C(=O)N1CCCCN1CCN(c2ncccn2)CC1

>  <Value type>
GLP1 secretion stimulation

>  <Measured result>
1.5% (inactive)

$$$$
>  <Molecule>
Cc1cc2nc3c(=O)[nH]c(=O)nc-3n(C[C@H](O)[C@H](O)[C@H](O)COP(=O)(O)OP(=O)(O)OC[C@H]3O[C@@H](n4cnc5c(N)ncnc54)[C@H](O)[C@H]3O)c2cc1C

>  <Value type>
GLP1 secretion stimulation

>  <Measured result>
-3.7% (inactive)

$$$$
>  <Molecule>
CCc1nnc(NS(=O)(=O)c2ccc(N)cc2)s1

>  <Value type>
GLP1 secretion stimulation

>  <Measured result>
-0.1% (inactive)

$$$$

Query block: Name the recorded GLP1 secretion stimulation of the item CCC(=O)Oc1ccc2c(c1)CC[C@@H]1[C@@H]2CC[C@@]2(C)[C@H]1C[C@@H](OC(=O)CC)[C@@H]2OC(=O)CC in your answer.
Result block: -6.9% (inactive)

Query block: Write down GLP1 secretion stimulation measured for item CCCCCCCCCCCCCCCC[N+](C)(C)Cc1ccccc1
Result block: -4.3% (inactive)

Query block: Report GLP1 secretion stimulation, nothing else, for this molecule: Cc1cccc(C)c1NC(=O)CN1CCCCCC1
Result block: -1% (inactive)

Query block: Entry C[C@H](CS)C(=O)N1CCC[C@H]1C(=O)O needs its GLP1 secretion stimulation filled in; supply it.
Result block: 2.3% (inactive)

Query block: Supply recorded GLP1 secretion stimulation for C[C@@H](N)C(=O)O here.
Result block: 5.9% (inactive)
